- System: MCF7
- measurement.notes: NCI tumour cell line growth inhibition, 48 h
The source made the active and inactive calls. No stated cut-off is given here; in the data, active = GI50 up to about 1.1 µM and inactive = higher.
Write down the outcome that applies. Available outcomes: active, inactive

compound	target.desc	category
CCOP(=O)(OCC)c1c(C(=O)OC)cc(=O)[nH]c1-c1ccc(C)cc1	MCF7	inactive

Assay outcome for `CN1CN(c2ccccc2)C2(CCN(CCc3csc4ccccc34)CC2)C1=O` : what was it?
inactive

Assay outcome for `Cc1c(C)c(S(=O)(=O)N(CCCN)OCCCN)c(C)c2c1OC(C)(C)CC2` : what was it?
inactive

====

- System: Hs-578T
- measurement.notes: NCI tumour cell line growth inhibition, 48 h
Calls of active or inactive are those of the source. No stated cut-off is given here; in the data, active = GI50 up to about 1.1 µM and inactive = higher.
Write down the outcome that applies. Available outcomes: YES (active), NO (inactive)

Example entries begin here.
compound	category
Cc1cccc(NC(=S)Nc2ccc(Cl)cc2)n1	NO
Cc1ncc(CSc2ccccc2N)c(CO)c1O	NO

Assay outcome for CC1(C)C2CCC3CC(CCC#N)CCC3C21C#N (stereo not given) : what was it?
NO

Assay outcome for `Cn1c(=O)oc2cc(C(=S)N3CCC(Cc4ccccc4)CC3)ccc21` : what was it?
NO

====

- Tested on: NCI-H23
- measurement.notes: NCI tumour cell line growth inhibition, 48 h
Calls of active or inactive are those of the source. Rule as the data show it: active = GI50 up to about 1.1 µM and inactive = higher.
Write down the outcome that applies. Available outcomes: TRUE (active), FALSE (inactive)

compound	category
COc1cc2c(cc1OC)C(N(C)C)C(c1ccccc1)=C2Cl (stereo not given)	FALSE

Assay outcome for `CN(C)C(=S)N/N=C\C=N/NC(=S)N(C)C` : what was it?
FALSE

Assay outcome for `COc1c2cc(C(C)(C)C)cc1Cc1cccc(c1OCc1cccc([N+](=O)[O-])c1)Cc1cc(C(C)(C)C)cc(c1OC)Cc1cccc(c1OCc1cccc([N+](=O)[O-])c1)Cc1cc(C(C)(C)C)cc(c1OC)Cc1cccc(c1OCc1cccc([N+](=O)[O-])c1)C2` : what was it?
FALSE

Assay outcome for O=C(Nc1ccc(Cl)cc1Cl)C1C(=O)N(c2ccc(Cl)cc2Cl)C(=O)/C1=N\Nc1ccc([N+](=O)[O-])cc1[N+](=O)[O-] (stereo not given) : what was it?
FALSE

====

- Test system: MDA-N
- measurement.notes: NCI tumour cell line growth inhibition, 48 h
The source made the active and inactive calls. Cut-off read from the data, not from the text of the source: active = GI50 up to about 1.1 µM and inactive = higher.
Write down the outcome that applies. Available outcomes: label 1 (active), label 0 (inactive)

molecule	category
COc1ccc2nc(-c3ccc(O)cc3)cc(O)c2c1	label 0
Cc1ccc(S(=O)(=O)N2CCSCCSCCSCCN(S(=O)(=O)c3ccc(C)cc3)CC2)cc1	label 0
COc1cccc(C2c3cc4c(cc3OC(NNC(N)=O)C2C)OCO4)c1OC (configuration not stated)	label 0

Assay outcome for `CN(C)C(=S)N/N=C\C=N/NC(=S)N(C)C` : what was it?
label 0

Assay outcome for `CC(C)(C)O/N=C/c1cc(NC(=S)c2ccccc2)ccc1Cl` : what was it?
label 0

Assay outcome for CCOC(=O)CCC(NC(=O)c1ccc(Nc2nc3ccccc3nc2C(=O)OCC)cc1)C(=O)OCC (configuration not stated) : what was it?
label 0

Assay outcome for `COc1ccc(Nc2nc(N)c(C(=O)c3ccco3)s2)cc1` : what was it?
label 0

Assay outcome for C[N+]1(C)C(c2ccccc2)C(=O)O[B@-]1(F)c1ccccc1 (some centres not stated) : what was it?
label 0

====

- Tested on: SF-295
- measurement.notes: NCI tumour cell line growth inhibition, 48 h
The source made the active and inactive calls. Rule as the data show it: active = GI50 up to about 1.1 µM and inactive = higher.
Write down the outcome that applies. Available outcomes: 1 = active, 0 = inactive

Example entries begin here.
molecule	target.desc	category
COc1ccc2nc(-c3ccc(O)cc3)cc(O)c2c1	SF-295	0
CCC(C=O)P1(=O)OC(C)(C)CN1C(C)(C)C (stereo unspecified)	SF-295	0
CCCCC/C(C=O)=C\c1ccccc1	SF-295	0
Nc1ncnn2c(C3OC(CO)C(O)C3O)ccc12 (stereo unspecified)	SF-295	1

Assay outcome for COc1cc2c(cc1OC)C(N(C)C)C(c1ccccc1)=C2Cl (stereo unspecified) : what was it?
0

Assay outcome for O=C1CC(C[C@H](O)C2CCCCC2O)CC(=O)N1Cc1ccccc1 (stereo partly specified) : what was it?
0

Assay outcome for `COc1ccc([C@H]2CC(=O)C[C@H](c3ccc(OC)cc3)C23C(=O)c2ccccc2C3=O)cc1` : what was it?
0

Assay outcome for `C=C(C)[C@@H]1CC[C@]2(C(=O)O)CC[C@]3(C)[C@H](CC[C@@H]4[C@@]5(C)CC(=O)C(C)(C)[C@@H]5CC[C@]43C)[C@@H]12` : what was it?
0

Assay outcome for `Cc1csc2n(C)c(=O)c3ccccc3[n+]12` : what was it?
0

Assay outcome for OC12c3ccccc3C1CCCCCCCCCC21OCCCO1 (stereo unspecified) : what was it?
0

Assay outcome for `Cc1ccc(NC(=O)/C(Cc2nc3ccc([N+](=O)[O-])cc3nc2O)=N\NC(=O)C[n+]2ccccc2)c(C)c1` : what was it?
0

====

Examples of compounds with documented GI50 follow.
- System: OVCAR-5
- measurement.notes: NCI tumour cell line growth inhibition, 48 h
Active and inactive are the calls of the source. No stated cut-off is given here; in the data, active = GI50 up to about 1.1 µM and inactive = higher.

Illustrative cases are given below, each with its answer.
compound	result
O=C(Nc1nc2ncn(CC(COc3ccccc3)OC(=O)c3ccccc3)c2c(=O)[nH]1)c1ccccc1 (configuration not stated)	> 100 µM (inactive)
c1csc(-c2ccsc2-c2cccs2)c1	> 100 µM (inactive)
CC(=O)NC(=N/N=C1/C(=O)Nc2ccc(C)cc21)NC(C)=O	> 100 µM (inactive)
O=[N+]([O-])C(/C(Cl)=C(/Cl)N1CCOCC1)=C1\Nc2ccccc2O1	> 100 µM (inactive)

Checklist item: GI50 tested on OVCAR-5, entry `CSC1(SC)CCCCCCCCCCC1` , value?
53.2 µM (inactive)

Checklist item: GI50 tested on OVCAR-5, entry `CC(=O)O/C(C)=C\C(=O)O/N=C(\N)c1ccc(C)cc1` , value?
> 100 µM (inactive)

Checklist item: GI50 tested on OVCAR-5, entry `CN(C)CC(C)(C)C(/C=C/c1ccccc1)=N\Nc1ccccc1` , value?
0.31 µM (active)

Checklist item: GI50 tested on OVCAR-5, entry `CN1CN(c2ccccc2)C2(CCN(CCc3csc4ccccc34)CC2)C1=O` , value?
11.9 µM (inactive)

Checklist item: GI50 tested on OVCAR-5, entry `Cc1cccc2c1NC(=S)[C@@H]1CCCN1C2=O` , value?
> 100 µM (inactive)

Checklist item: GI50 tested on OVCAR-5, entry CC1OC(=O)N2CCC=CC12 (configuration not stated) , value?
> 100 µM (inactive)

Checklist item: GI50 tested on OVCAR-5, entry `CC(=O)Nc1ccc(-c2nnc(SCC(=O)Nc3cccc([N+](=O)[O-])c3)o2)cc1` , value?
23.9 µM (inactive)

====

- Tested on: MOLT-4
- measurement.notes: NCI tumour cell line growth inhibition, 48 h
Calls of active or inactive are those of the source. Cut-off read from the data, not from the text of the source: active = GI50 up to about 1.1 µM and inactive = higher.
Write down the outcome that applies. Available outcomes: true (1) (active), false (0) (inactive)

Example entries begin here.
molecule	category
O=C(N/C(=C\c1ccc([N+](=O)[O-])cc1)c1nc2ccccc2[nH]1)c1ccccc1	false (0)
CCCC(=O)NC(Nc1ccc(S(=O)(=O)Nc2ccc(OC)nn2)cc1)(C(F)(F)F)C(F)(F)F	false (0)

Continue with the molecule presented below.
Assay outcome for CC[C@H](C)[C@H]1NC(=O)[C@@H](NC(=O)[C@@H](CC(C)C)N(C)C(=O)C2CCCN2C(=O)[C@H](C)O)[C@@H](C)OC(=O)[C@H](Cc2ccccc2)N(C)C(=O)[C@@H]2CCCN2C(=O)[C@H](CC(C)C)NC(=O)[C@@H](C)C(=O)[C@H](C(C)C)OC(=O)C[C@@H]1O (stereo partly drawn) : what was it?
true (1)

====

- Test system: UACC-257
- measurement.notes: NCI tumour cell line growth inhibition, 48 h
Active and inactive are the calls of the source. Cut-off read from the data, not from the text of the source: active = GI50 up to about 1.1 µM and inactive = higher.
Write down the outcome that applies. Available outcomes: t for active, f for inactive

Example entries begin here.
compound	category
S=C=NC1CCC(c2cc3ccccc3s2)(N2CCCCC2)CC1 (stereo unspecified)	f
Nc1ccccc1C(=O)CCC1C(=O)NC(=S)NC1=O	f
N#CCCN(CCC#N)C(=O)c1cccc(C(=O)N(CCC#N)CCC#N)c1	f
COc1cc2c(c(O)c1OC)C(=O)C1CCC(=O)N1C2c1cccc2ccccc12 (stereo unspecified)	f
CC1OC(=O)N2CCC=CC12 (stereo unspecified)	f
COc1cc(C2SCC(=O)N2c2cccc(Cl)c2)cc(OC)c1OC (stereo unspecified)	f
COC(=O)c1cc(S(=O)(=O)NC2=NNC(C)CN2)c(S)cc1Cl (stereo unspecified)	f
CCOC(=O)Cn1c(C(F)(F)F)nc2nc(Cl)c(Cl)nc21	f
O=[N+]([O-])C(/C(Cl)=C(/Cl)N1CCOCC1)=C1\Nc2ccccc2O1	f
COc1ccc2c(c1)/C(=C(\C(Cl)=C(Cl)Cl)[N+](=O)[O-])N2	f

Assay outcome for Cc1cc(O)c(C=O)c(C)c1CCC1(C)C=Cc2cc(O)ccc2O1 (stereo unspecified) : what was it?
f

Assay outcome for `O=C(c1ccc(Cl)cc1)N(C(=S)N1CCN(c2ccccc2)CC1)c1ccccc1` : what was it?
f

Assay outcome for COC(=O)[C@]12CC=C3O[C@@H]4OC5(CCCCC5)O[C@@H]4[C@H]3C1C(=O)C=CC2=O (stereo partly specified) : what was it?
f

Assay outcome for `Cc1csc2nc3c(cnn3C)c(=S)n12` : what was it?
f

Assay outcome for `COc1cc(OC)c2c(=O)cc(-c3ccccc3F)[nH]c2c1` : what was it?
f

Assay outcome for c1ccc(C2CC(c3ccc4ccccc4c3)=Nc3ccccc3S2)cc1 (stereo unspecified) : what was it?
f

Assay outcome for CSc1ccc2c(cc1=O)C(NC(=O)c1cc(O)c(OC(=O)O)c(O)c1)CCc1cc(O)c(O)c(O)c1-2 (stereo unspecified) : what was it?
f

Hey, just so you know, these numbers are from ChEMBL document CHEMBL1201862.
